The values you see were collected from PubChem BioAssay AID1259407.

Test system: CCRIS mutagenicity, Ames/micronucleus/aberration tests
Test: CCRIS mutagenicity studies
Conditions: Test System: AMES SALMONELLA TYPHIMURIUM; Strain/Indicator: TA98; Metabolic Activation: RAT, LIVER, S-9, AROCLOR 1254; Method: STANDARD PLATE
Activity calls are given as the source filed them. The rule behind the calls is not given here.
endpoint.name: mutagenic call

- compound: "O=CC(O)C(O)C(O)C(O)COC1OC(COC2OC(CO)C(O)C(O)C2O)C(O)C(O)C1O (configuration not stated)"
  mutagenic call: "inactive; negative"
- compound: "O=C(O)O"
  mutagenic call: "inactive; negative"
- compound: "O=C(O)CCC(=O)N(O)c1ccc(Cl)cc1"
  mutagenic call: "active; positive"
- compound: "c1ccc2c(c1)cc1ccc3cc4ccccc4c4ccc2c1c34"
  mutagenic call: "active; positive"
- compound: "OC(c1ccc(Cl)cc1)(c1ccc(Cl)cc1)C1CC1"
  mutagenic call: "inactive; negative"
- compound: "O=[N+]([O-])c1ccc2c3c(cccc13)-c1cc(O)ccc1-2"
  mutagenic call: "active; positive"

What value of mutagenic call has been reported for the following compound? Cc1cccnc1 inactive; negative

====

Test system: CCRIS mutagenicity, Ames/micronucleus/aberration tests
Assay: CCRIS mutagenicity studies
Details: Test System: AMES SALMONELLA TYPHIMURIUM; Strain/Indicator: TA98; Metabolic Activation: NONE; Method: STANDARD PLATE
Calls of active or inactive are those of the source. How the calls were made is not given here. Where a SMILES comes first, the peptide text is derived from it.
Outcome field: choose from T (active), F (inactive)

- molecule: "NCCCC[C@H](NC(=O)[C@H](Cc1c[nH]c2ccccc12)NC(=O)[C@@H](N)CCCCN)C(=O)O (H-Lys-Trp-Lys-OH)"
  category: "F"
- molecule: "COc1cccc(NC(=O)c2csc([N+](=O)[O-])c2)c1"
  category: "T"
- molecule: "CCCON=O"
  category: "F"
- molecule: "CC(=O)O[C@H]1C[C@@H]2C(COC(=O)CC(C)C)=CO[C@@H](OC(=O)CC(C)C)[C@@H]2[C@@]12CO2"
  category: "F"
- molecule: "c1ccc2c(c1)-c1cc3ccc4ccccc4c3cc1[C@H]1N[C@@H]21"
  category: "T"
- molecule: "CC1=CCC(C(C)(C)O)CC1 (stereo unspecified)"
  category: "F"
- molecule: "Nc1nc2ccc([N+](=O)[O-])cc2s1"
  category: "T"
- molecule: "C[C@@H]1C[C@H]2[C@@H]3CCC4=CC(=O)C=C[C@]4(C)[C@@]3(F)[C@@H](O)C[C@]2(C)[C@@]1(O)C(=O)CO"
  category: "F"

For this molecule, state the assay outcome: C1=Cc2c3cc4ccccc4cc3cc3cccc1c23 T

Would you kindly repeat that for Cc1ccc(C(C)C)cc1O ? F

====

Test system: CCRIS mutagenicity, Ames/micronucleus/aberration tests
Assay: CCRIS mutagenicity studies
Details: Test System: AMES SALMONELLA TYPHIMURIUM; Strain/Indicator: TA100(NR); Metabolic Activation: NONE; Method: PREINCUBATION
Active and inactive are the calls of the source. No rule for the calls is given here.
Outcome field: choose from active, inactive

For this compound, state the assay outcome: CCC(=O)OCc1ccc([N+](=O)[O-])cc1 inactive

Would you kindly repeat that for Nc1nc(-c2ccc([N+](=O)[O-])cc2)nc2nc[nH]c12 ? active

Would you kindly repeat that for Nc1ncnc2c1ncn2Cc1ccc([N+](=O)[O-])cc1 ? inactive

====

System: CCRIS mutagenicity, Ames/micronucleus/aberration tests
Assay: CCRIS mutagenicity studies
Conditions: Test System: AMES SALMONELLA TYPHIMURIUM; Strain/Indicator: TA100; Metabolic Activation: RAT, LIVER, S-9, PCB (5%); Method: PREINCUBATION
Active and inactive are the calls of the source. No rule for the calls is given here.
Outcome field: choose from active, inactive

Below are worked cases with known answers.
- smiles.text: "O=[N+]([O-])c1ccc2c(c1)oc1ccc([N+](=O)[O-])cc12"
  category: "inactive"
- smiles.text: "O=[N+]([O-])c1cccc2c1oc1ccccc12"
  category: "active"
- smiles.text: "O=[N+]([O-])c1ccc2oc3ccccc3c2c1"
  category: "inactive"

Turning now to a further record.
For this compound, state the assay outcome: O=[N+]([O-])c1ccc2c(c1)Oc1cc([N+](=O)[O-])ccc1O2 inactive

====

Tested on: CCRIS mutagenicity, Ames/micronucleus/aberration tests
Assay: CCRIS mutagenicity studies
Settings: Test System: AMES SALMONELLA TYPHIMURIUM; Strain/Indicator: TA100; Metabolic Activation: RAT, LIVER, S-9, AROCLOR 1254; Method: STANDARD PLATE
Description: The CCRIS database contains chemical records with carcinogenicity, mutagenicity, tumor promotion, and tumor inhibition test results. It was developed by the National Cancer Institute (NCI). Data are derived from studies cited in primary journals, current awareness tools, NCI reports, and other sources. Test results have been reviewed by experts in carcinogenesis and mutagenesis. CCRIS provides historical information from the years 1985 - 2011. It is no longer updated. […]
The source made the active and inactive calls. The rule behind the calls is not given here.
Outcome field: choose from class 1 = active, class 0 = inactive

- compound: "CC(=O)O[C@H]1C[C@@H]2C(COC(=O)CC(C)C)=CO[C@@H](OC(=O)CC(C)C)[C@@H]2[C@@]12CO2"
  system.under.test: "CCRIS mutagenicity, Ames/micronucleus/aberration tests"
  category: "class 1"
- compound: "Cc1cccnc1"
  system.under.test: "CCRIS mutagenicity, Ames/micronucleus/aberration tests"
  category: "class 0"
- compound: "COc1cc(O)c2c(=O)c(O)c(-c3ccc(O)c(O)c3)oc2c1"
  system.under.test: "CCRIS mutagenicity, Ames/micronucleus/aberration tests"
  category: "class 0"
- compound: "CN(C)c1ccc2nc3ccc(=[N+](C)C)cc-3sc2c1"
  system.under.test: "CCRIS mutagenicity, Ames/micronucleus/aberration tests"
  category: "class 1"

For this compound, state the assay outcome: CC1c2ccccc2-c2ccccc21 class 1

Would you kindly repeat that for C[N+](C)(C)CC(=O)O ? class 0

====

Tested on: CCRIS mutagenicity, Ames/micronucleus/aberration tests
Test: CCRIS mutagenicity studies
Details: Test System: MOUSE LYMPHOMA; Strain/Indicator: L5178Y (TK+/TK-); Metabolic Activation: RAT, LIVER, S-9; Method: SUSPENSION/PLATE
Activity calls are given as the source filed them. The rule behind the calls is not given here.
Outcome field: choose from active, inactive

- smiles.text: "CN(C)N=O"
  category: "active"
- smiles.text: "CNC(=O)ON=CC(C)(C)SC"
  category: "active"
- smiles.text: "C[Si]1(C)O[Si](C)(C)O[Si](C)(C)O[Si](C)(C)O1"
  category: "inactive"

For this compound, state the assay outcome: CN(C)c1ccc2nc3ccc(=[N+](C)C)cc-3sc2c1 active

Would you kindly repeat that for C=C(Cl)Cl ? active

Would you kindly repeat that for Nc1ncn[nH]1 ? inactive

Would you kindly repeat that for CC[C@H]1OC(=O)[C@H](C)[C@@H](O[C@H]2C[C@@](C)(OC)[C@@H](O)[C@H](C)O2)[C@H](C)[C@@H](O[C@@H]2O[C@H](C)C[C@H](N(C)C)[C@H]2O)[C@](C)(O)C[C@@H](C)CN(C)[C@H](C)[C@@H](O)[C@]1(C)O ? inactive

====

Tested on: CCRIS mutagenicity, Ames/micronucleus/aberration tests
Assay: CCRIS mutagenicity studies
Conditions: Test System: AMES SALMONELLA TYPHIMURIUM; Strain/Indicator: TA100; Metabolic Activation: RAT, LIVER, S-9, AROCLOR 1254 (10%); Method: PREINCUBATION
Active and inactive are the calls of the source. How the calls were made is not given here.
endpoint.name: mutagenic call

Answered cases to consult:
- compound: "C1CCC(NC2CCCCC2)CC1"
  system.under.test: "CCRIS mutagenicity, Ames/micronucleus/aberration tests"
  observed.result: "inactive; negative"
- compound: "CCCCC(CC)COC(=O)CCCCC(=O)O (stereo not drawn)"
  system.under.test: "CCRIS mutagenicity, Ames/micronucleus/aberration tests"
  observed.result: "inactive; negative"
- compound: "CCS(=O)CCSP(=O)(OC)OC (stereo not drawn)"
  system.under.test: "CCRIS mutagenicity, Ames/micronucleus/aberration tests"
  observed.result: "active; positive"
- compound: "CC(C)CN"
  system.under.test: "CCRIS mutagenicity, Ames/micronucleus/aberration tests"
  observed.result: "inactive; negative"
- compound: "O=[N+]([O-])c1ccccc1CCO"
  system.under.test: "CCRIS mutagenicity, Ames/micronucleus/aberration tests"
  observed.result: "inactive; negative"
- compound: "NCCNCCN"
  system.under.test: "CCRIS mutagenicity, Ames/micronucleus/aberration tests"
  observed.result: "inactive; negative"
- compound: "O=C(Nc1cccc2c(=O)c3c(ccc4c5cc(NC(=O)c6ccccc6)c6c(=O)c7ccccc7c(=O)c6c5[nH]c43)c(=O)c12)c1ccccc1"
  system.under.test: "CCRIS mutagenicity, Ames/micronucleus/aberration tests"
  observed.result: "inactive; negative"
- compound: "O=c1[nH]c(=O)n(Cl)c(=O)n1Cl"
  system.under.test: "CCRIS mutagenicity, Ames/micronucleus/aberration tests"
  observed.result: "inactive; negative"

For each listed entry, give its mutagenic call.
1. N#C/C(N)=C(/N)C#N
2. CCCCCCCCCCCCOCC1CO1 (stereo not drawn)
3. COc1cc(-c2ccc(N/N=C3\C(=O)c4c(O)cc(S(=O)(=O)O)cc4C=C3S(=O)(=O)O)c(OC)c2)ccc1N/N=C1\C(=O)c2c(O)cc(S(=O)(=O)O)cc2C=C1S(=O)(=O)O
4. Nc1ccc(Cc2ccc(N)cc2)cc1
5. Cc1ccco1

inactive; negative
inactive; negative
inactive; negative
active; positive
inactive; negative
